Tested on: Nightshade
protocol_notes: Test C preemergence
Format: in vivo
condition_summary: Rate 125 g/ha, scale 0 to 100, 0 no effect, 100 complete control
For each of the compounds below, state its Plant response rating, Nightshade.

Which measured Plant response rating, Nightshade value corresponds to CC(C)c1ccn(C2SCN(c3cccc(OC(F)(F)F)c3)C2=O)n1 (stereo not shown) ?
90

// Plant response rating, Nightshade lookup, key: CC1(c2ccn(C3SCN(c4cccc(OC(F)(F)F)c4)C3=O)n2)CC1 (stereo not shown)
60

What value of measured Plant response rating, Nightshade is listed for CCOC(=O)c1cccc(N2CCC(n3ccc(C(C)(C)C)n3)C2=O)c1 (stereo not shown) ?
10

What value of Plant response rating, Nightshade has been recorded for this entry: CCC(C)c1ccn(C2SCN(c3cccc(OC(F)(F)F)c3)C2=O)n1 (stereo not shown)
0
